The measured values listed here are drawn from the supplement of paper PMC10567573.

B1: FAM189A2 (parent)
chain: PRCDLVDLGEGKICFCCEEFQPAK

variants of: B1; assay: protein stability index of a GFP-peptide fusion (GPS, HEK-293T) (PSI 1-6); higher = more stable; details: c terminus: a fixed tail appended;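 also: lentivirally expressed fusions sorted by FACS into six bins by GFP to DsRed ratio, PSI derived from sequencing read proportions per bin multiplied by bin number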
Values of protein stability index greater than or equal to 3 map to T; values below map to F.

Exercise: Is protein stability index at least 3? Consider PRCDLVDDGEGKICFCCEEFQPAK [L8D]
Solution: T

Exercise: Now consider PRCDLVDLGQGKICFCCEEFQPAK [E10Q] .
Solution: F

Exercise: Now consider PRCDLVDLGEGKICFCCHEFQPAK [E18H] .
Solution: F

Exercise: Now consider PRCDLVDLGEGKICFGCEEFQPAK [C16G] .
Solution: T
